# ASSAY_EXPLANATION: Pharmacokinetic assay in rats
# Type: in vivo, SD rats
# CONDITION_DETAILS: rat, po, plasma, Intragastric administration (5 mg/kg)
TEST_READOUT: half-life (h)
Unit h implied. Number only.

What measured half-life goes with CC(O)(CO)C[C@](C)(N)COc1ccc(-c2ccnc(C(F)F)c2)nc1C(F)F (single isomer, unassigned) ?
4.52

###

pIC50: −log10 of the molar value.
As a worked illustration, we turn to pIC50 data collected for UniProt:Q2M2I8.
Sequence (Q2M2I8 27-365 limits assumed): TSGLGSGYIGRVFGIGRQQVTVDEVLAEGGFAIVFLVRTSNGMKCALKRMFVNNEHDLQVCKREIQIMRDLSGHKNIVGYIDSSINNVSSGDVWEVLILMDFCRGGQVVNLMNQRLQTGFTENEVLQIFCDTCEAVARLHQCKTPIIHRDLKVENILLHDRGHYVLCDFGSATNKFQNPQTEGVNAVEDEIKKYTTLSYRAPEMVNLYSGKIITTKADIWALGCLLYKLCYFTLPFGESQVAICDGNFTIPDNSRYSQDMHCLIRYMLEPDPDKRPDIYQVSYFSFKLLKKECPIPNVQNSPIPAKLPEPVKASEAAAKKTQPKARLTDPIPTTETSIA

CC(O)(CO)C[C@](C)(N)COc1ccc(-c2ccnc(C(F)F)c2)nc1C(F)F (single isomer, unassigned) [Compound 1-2] | ≥ 7.70

From here, focus on the item given below.
What measured pIC50 goes with CC(O)(CO)C[C@](C)(N)COc1ccc(-c2ccnc(C(F)F)c2)nc1C(F)F (single isomer, unassigned) [Compound 1-1] ?
≥ 7.70
